# key: entry, value: Semi-quantitative analysis of proteins binding to different plaque particles: Chl small
System: Low density cholesterol (Chl small) plaque particles
experimentNotes: Mass spectroscopy proteomics, semi-quantitative binding affinity of serum proteins (plaqueproteome, Table 2)
Set-up: species or system human
testSettings: higher number = stronger affinity
Procedure: The goal was to isolate plaque particles synthesized in the bio-fluids in a relatively pure form to enable their subsequent use for identification of components that contribute to the plaque formation. […] All MS/MS samples were analyzed using Sequest (Thermo Fisher Scientific, San Jose, Calif., USA; version 1.0). […]
experimentalEndpoint: Semi-quantitative analysis of proteins binding to different plaque particles: Chl small

• Histone H1.3 (protein) SETAPLAPTIPAPAEKTPVKKKAKKAGATAGKRKASGPPVSELITKAVAASKERSGVSLAALKKALAAAGYDVEKNNSRIKLGLKSLVSKGTLVQTKGTGASGSFKLNKKAASGEGKPKAKKAGAAKPRKPAGAAKKPKKVAGAATPKKSIKKTPKKVKKPATAAGTKKVAKSAKKVKTPQPKKAAKSPAKAKAPKPKAAKPKSGKPKVTKAKKAAPKKK = 0
• Ig alpha-2 chain C region (protein) ASPTSPKVFPLSLDSTPQDGNVVVACLVQGFFPQEPLSVTWSESGQNVTARNFPPSQDASGDLYTTSSQLTLPATQCPDGKSVTCHVKHYTNSSQDVTVPCRVPPPPPCCHPRLSLHRPALEDLLLGSEANLTCTLTGLRDASGATFTWTPSSGKSAVQGPPERDLCGCYSVSSVLPGCAQPWNHGETFTCTAAHPELKTPLTANITKSGNTFRPEVHLLPPPSEELALNELVTLTCLARGFSPKDVLVRWLQGSQELPREKYLTWASRQEPSQGTTTYAVTSILRVAAEDWKKGETFSCMVGHEALPLAFTQKTIDRMAGKPTHINVSVVMAEADGTCY = 6
